Each recorded value in this set is attributed to the RNAGym collection of RNA variant scans (doi:10.1002/anie.201605470).

Can you tell me self-cleavage for the items I'm about to list?
B1: Osa-1-4 twister ribozyme (parent)
chain: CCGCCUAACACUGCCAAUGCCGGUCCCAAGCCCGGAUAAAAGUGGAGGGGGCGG

Variants of: B1
Test: self-cleavage, relative activity (ratio to wild type); higher = more cleavage; co-transcriptional
Output spec: single numeric token, no unit.

Enquiry: // lookup self-cleavage for C26A G44C
Return: 0.05

Enquiry: Quick one: self-cleavage of C20G C21G ?
Return: 0.24

Enquiry: Which self-cleavage is listed for A39U C15U ?
Return: 0.56

Enquiry: Field request: self-cleavage | item: G23U U37A
Return: 0.14

Enquiry: Name the reported self-cleavage value associated with the variant C33A G22C
Return: 0.22

Enquiry: // returns reported self-cleavage for input C32U U12A
Return: 0.1

Enquiry: // lookup self-cleavage for G53A U43C
Return: 0.43
